Measured values drawn from ChEMBL document CHEMBL1133366 for this set.

- subject-of-test: Serine/threonine-protein kinase RAF and Dual specificity mitogen-activated protein kinase kinase 1 (Raf/MEK) (Homo sapiens, UniProt P04049+Q02750)
- method-summary: Inhibition of ERK-phosphorylation by Raf-MEK-ERK in coupled ELISA
- Assay type: protein assay
observable: IC50

COc1cc2c(Nc3ccc(Oc4ccccc4)cc3)c(C#N)cnc2c(OC)c1OC	> 10 µM
COc1cccc2c(Nc3ccc(Oc4ccccc4)cc3)c(C#N)cnc12	> 10 µM
COc1cc2c(Nc3ccc(Oc4ccccc4)cc3)c(C#N)cnc2cc1OCCCN1CCOCC1	0.0024 µM

Q: Entry "COc1cc2ncc(C#N)c(Nc3ccccc3Oc3ccccc3)c2cc1OC" has what IC50?
Result: > 10 µM

Q: Give its IC50 value. Item: "COc1ccc(OC)c2c(Nc3ccc(Oc4ccccc4)cc3)c(C#N)cnc12"
Result: > 10 µM
